# Tested on: RAW-Dual (murine macrophage reporter line)
# assay.protocol: NF-kB reporter (SEAP) activity fold change vs agonist alone; higher = enhanced NF-kB activity
# test.parameters: modulator concentration 10 µM; agonist: CpG ODN 1826 0.5 ug/mL
Give Criterion met when the value for NF-kB reporter is at least 1. Give Criterion not met when it is less.

Hello, I need to know if `NC(=O)OCC(COC(N)=O)c1ccccc1` has measured NF-kB reporter not below 1. Thanks!
Criterion met

Hello, I need to know if `CN1CCN(C(=O)c2cc(-c3ccccc3)nc3ccccc23)CC1` has measured NF-kB reporter not below 1. Thanks!
Criterion met

Hello, I need to know if `Cc1ccc(NC(=O)c2ccc(CN3CCN(C)CC3)cc2)cc1Nc1nc(-c2cccnc2)cs1` has measured NF-kB reporter not below 1. Thanks!
Criterion not met

Hello, I need to know if `COc1cc(Cl)cc(C=NNC(=O)c2cc(C)n[nH]2)c1O` has measured NF-kB reporter not below 1. Thanks!
Criterion met

Hello, I need to know if `O=c1[nH]c(=O)n([C@H]2C[C@H](O)[C@@H](CO)O2)cc1F` has measured NF-kB reporter not below 1. Thanks!
Criterion met

Hello, I need to know if `CC(=O)n1cc(C=C(C)[N+](=O)[O-])c2ccccc21` has measured NF-kB reporter not below 1. Thanks!
Criterion met

Hello, I need to know if COC(=O)C1=C(C)NC(C)=C(C(=O)OCC(C)C)C1c1ccccc1[N+](=O)[O-] (stereo unspecified) has measured NF-kB reporter not below 1. Thanks!
Criterion not met

Hello, I need to know if NC(Cc1ccccc1)C(=O)O (stereo unspecified) has measured NF-kB reporter not below 1. Thanks!
Criterion met

Hello, I need to know if `CC(=NNC(=O)CNc1ccccc1C)c1ccc(Br)cc1` has measured NF-kB reporter not below 1. Thanks!
Criterion met

====

Hi there, I'd appreciate the recorded IRF reporter for every entry that follows.
# Test system: RAW-Dual (murine macrophage reporter line)
# assay.protocol: IRF reporter (Lucia luciferase) activity fold change vs agonist alone; higher = enhanced IRF activity
# test.parameters: modulator concentration 10 µM; agonist: 3'3'-cGAMP 10 ug/mL
Please give only the number in your answer, with no unit.

Entry `COc1ccc(C(=O)C=Cc2cc(OC)c(OC)c(OC)c2)c(O)c1` , tested on RAW-Dual (murine macrophage reporter line), has a reported IRF reporter of 0.148

Entry Cc1nnc(C(C)C)n1C1CC2CCC(C1)N2CC[C@H](NC(=O)C1CCC(F)(F)CC1)c1ccccc1 (stereo partly drawn) , tested on RAW-Dual (murine macrophage reporter line), has a reported IRF reporter of 1.08

Entry C#CCCCCCCCCCCCC(O)CC(O)COC(C)=O (stereo not drawn) , tested on RAW-Dual (murine macrophage reporter line), has a reported IRF reporter of 0.832

Entry `CCN(CCO)CCCOc1ccc2c(Nc3cc(CC(=O)Nc4cccc(F)c4)n[nH]3)ncnc2c1` , tested on RAW-Dual (murine macrophage reporter line), has a reported IRF reporter of 0.982

Entry `O=C(OCCN1CCOCC1)c1ccc(O)cc1O` , tested on RAW-Dual (murine macrophage reporter line), has a reported IRF reporter of 1.05

Entry COCCCNC(=O)C1CCCN(c2ccc(Sc3ccc(Br)cc3)nn2)C1 (stereo not drawn) , tested on RAW-Dual (murine macrophage reporter line), has a reported IRF reporter of 0.84

Entry `Cl.Cl.Fc1ccc(C(c2ccc(F)cc2)N2CCN(CC=Cc3ccccc3)CC2)cc1` , tested on RAW-Dual (murine macrophage reporter line), has a reported IRF reporter of 0.956

Entry `CNC(=O)c1cccc(-c2noc(C3CN(C(=O)NC4CCCCC4)C3)n2)c1` , tested on RAW-Dual (murine macrophage reporter line), has a reported IRF reporter of 1.06

Entry `Cn1c(=O)[nH]c(=O)c2c1nc(N1CCCCC1)n2CCC#N` , tested on RAW-Dual (murine macrophage reporter line), has a reported IRF reporter of 0.945

Entry `Cc1ccc(-c2cc(-c3ccccc3)nc(NN=Cc3ccc(O)cc3)n2)cc1` , tested on RAW-Dual (murine macrophage reporter line), has a reported IRF reporter of 0.228

Entry `COc1ccc([C@H]2CNC(=O)C2)cc1OC1CCCC1` , tested on RAW-Dual (murine macrophage reporter line), has a reported IRF reporter of 0.902

Entry `CCNC(=O)c1ccc(CN2CCc3ccccc3C2)cc1` , tested on RAW-Dual (murine macrophage reporter line), has a reported IRF reporter of 0.905

Entry CC(Oc1cccc(Cl)c1)C(=O)Nc1nncs1 (stereo not drawn) , tested on RAW-Dual (murine macrophage reporter line), has a reported IRF reporter of 0.947

Entry `COc1ccc(C=NNC(=O)c2ccc(CN3CCOCC3)cc2)cc1[N+](=O)[O-]` , tested on RAW-Dual (murine macrophage reporter line), has a reported IRF reporter of 1.04

Entry CN(C)CCS(=O)c1ccccc1 (stereo not drawn) , tested on RAW-Dual (murine macrophage reporter line), has a reported IRF reporter of 0.983

Entry COc1ccc(OC)c(S(=O)(=O)NCC2CC(=O)N(c3ccc(Cl)cc3)C2)c1 (stereo not drawn) , tested on RAW-Dual (murine macrophage reporter line), has a reported IRF reporter of 0.762

Entry `CCc1cnn2c(NCc3ccc[n+]([O-])c3)cc(N3CCCC[C@H]3CCO)nc12` , tested on RAW-Dual (murine macrophage reporter line), has a reported IRF reporter of 0.0244

Entry `COc1ccc(CNCc2cccc3ccccc23)cc1` , tested on RAW-Dual (murine macrophage reporter line), has a reported IRF reporter of 0.877

Entry Br.Cc1ccc(-c2csc(N3N=C(c4ccc(F)cc4)CC3c3ccc(C(C)C)cc3)n2)cc1C (stereo not drawn) , tested on RAW-Dual (murine macrophage reporter line), has a reported IRF reporter of 0.824

Entry `Cc1cc2c(s1)Nc1ccccc1N=C2N1CCN(C)CC1` , tested on RAW-Dual (murine macrophage reporter line), has a reported IRF reporter of 0.819

Entry `Nc1ccc(OCc2ccccc2)cc1` , tested on RAW-Dual (murine macrophage reporter line), has a reported IRF reporter of 0.635

Entry `Ic1ccc(OCCCOc2ncnc3ccccc23)cc1` , tested on RAW-Dual (murine macrophage reporter line), has a reported IRF reporter of 0.963

Entry `CCCc1nc(C(C)(C)O)c(C(=O)OCc2oc(=O)oc2C)n1Cc1ccc(-c2ccccc2-c2nnn[nH]2)cc1` , tested on RAW-Dual (murine macrophage reporter line), has a reported IRF reporter of 0.916

====

# Tested on: RAW-Dual (murine macrophage reporter line)
# assay.protocol: IRF reporter (Lucia luciferase) activity fold change vs agonist alone; higher = enhanced IRF activity
# test.parameters: modulator concentration 10 µM; agonist: MPLA […]
Hi there, I'd appreciate the recorded IRF reporter for every entry that follows.

Entry `COC(=O)C1=C(C)NC(C)=C(C(=O)O[C@@H]2CCCN(Cc3ccccc3)C2)[C@@H]1c1cccc([N+](=O)[O-])c1.Cl` , tested on RAW-Dual (murine macrophage reporter line), has a reported IRF reporter of 1.25

Entry `Cn1nc(CNC(=O)c2cccc3ccccc23)cc1C1CC1` , tested on RAW-Dual (murine macrophage reporter line), has a reported IRF reporter of 0.962

Entry `CN1C(=N)NC(=O)C1=Cc1cc(Br)cc(Br)c1O` , tested on RAW-Dual (murine macrophage reporter line), has a reported IRF reporter of 1.01

Entry `Cc1cc(=O)nc(SCCc2ccccc2)[nH]1` , tested on RAW-Dual (murine macrophage reporter line), has a reported IRF reporter of 1.2

Entry `COc1cccc2c1C(=O)c1c(O)c3c(c(O)c1C2=O)C[C@@](O)(C(=O)CO)C[C@@H]3O[C@H]1C[C@H](N)[C@@H](O)[C@H](C)O1.Cl` , tested on RAW-Dual (murine macrophage reporter line), has a reported IRF reporter of 0.0142

Entry C=C(C)CSC1=C(C#N)C(c2ccccc2)CC(=O)N1 (centres undefined) , tested on RAW-Dual (murine macrophage reporter line), has a reported IRF reporter of 0.999

Entry `CC#C[C@]1(O)CC[C@H]2[C@@H]3CCC4=CC(=O)CCC4=C3[C@@H](c3ccc(N(C)C)cc3)C[C@@]21C` , tested on RAW-Dual (murine macrophage reporter line), has a reported IRF reporter of 1.05

Entry `Cc1ccc(-n2ncc3c(=O)n(CC=Cc4ccccc4)cnc32)cc1C` , tested on RAW-Dual (murine macrophage reporter line), has a reported IRF reporter of 1.06

Entry CC(C)c1ccc(NC(=O)C2CCCCC2C(=O)O)cc1 (centres undefined) , tested on RAW-Dual (murine macrophage reporter line), has a reported IRF reporter of 1.24

====

# Test system: RAW-Dual (murine macrophage reporter line)
# assay.protocol: NF-kB reporter (SEAP) activity fold change vs agonist alone; higher = enhanced NF-kB activity
# test.parameters: modulator concentration 10 µM; agonist: CpG ODN 1826 0.5 ug/mL
Hi there, I'd appreciate the recorded NF-kB reporter for every entry that follows.
Please give only the number in your answer, with no unit.

Please fill in: NF-kB reporter reported for `COCCNc1nc(SCC(=O)Nc2cccc(C(F)(F)F)c2)nc2ccccc12` = 0.268

Please fill in: NF-kB reporter reported for `O=C(c1cc2ccccc2o1)N1CC(N2C(=O)CNC2=O)C1` = 1.17

Please fill in: NF-kB reporter reported for `CCOc1ccc(N=Cc2c(Nc3ccc(OCC)cc3)nc3ccccn3c2=O)cc1` = 1.17

Please fill in: NF-kB reporter reported for `Cc1ccc(C(=O)N(CCCN)[C@@H](c2nc3cc(Cl)ccc3c(=O)n2Cc2ccccc2)C(C)C)cc1` = 0.186

Please fill in: NF-kB reporter reported for `CC(C)C(=O)c1c(C(C)C)nn2ccccc12` = 1.59

Please fill in: NF-kB reporter reported for `CCCCCCOc1ccc(OC(=O)c2ccc(OC)cc2)cc1` = 0.826

Please fill in: NF-kB reporter reported for `COc1ccc(CNCc2cccc3ccccc23)cc1` = 0.715

Please fill in: NF-kB reporter reported for `Cc1ccc(OCCOc2ncnc3ccccc23)c(Cl)c1` = 1.02

Please fill in: NF-kB reporter reported for `O=C1[C@H](CC[C@H](O)c2ccc(F)cc2)[C@@H](c2ccc(O)cc2)N1c1ccc(F)cc1` = 1.11

Please fill in: NF-kB reporter reported for `Nc1nc(NC2CC2)c2ncn([C@H]3C=C[C@@H](CO)C3)c2n1.Nc1nc(NC2CC2)c2ncn([C@H]3C=C[C@@H](CO)C3)c2n1.O=S(=O)(O)O` = 1.1
